Taken from the nanobody polyreactivity screen of Harvey et al. (2022).

# ASSAY OVERVIEW: yeast display, Sf9 membrane polyspecificity reagent, FACS + sequencing; frameworks hold sequencing errors

ITEM SEQUENCE	polyreactivity (PSR sort gate)
QVQLVESGGGLVQAGGSLRLSCAASGRIFRVYAMGWSRQAPGKERELVASITRTGGGTYYADSVKGRFTNSRDNAKNTVYLQMNRLKPEDPAVYYCAADAFIPGYQLHYHWGQGTQVTVSS	low polyreactivity
QVQLVDSGGGLVQAGGSLRLSCAASGSTFYYNAMGWYRQAPGKERELVARISRSGGSTYADSVKGRFTISRDNAKNTFYLQMNSLKPEDTAVYYCNADAYGTPEFTSYAVCYDYWGQGTQVTVSS	low polyreactivity
QVQLVESGGGLVQAGGSLRLSCAASGRTLYGYAMGWYRQAPGKEREFVAAISRSGGRTYYADSVKGRFTISRDNAKNTVYLQMNSLKPEDTAVYYCAARQYQAKQPYGYYPGYGYWGQGTQVTVSS	high polyreactivity
QVQLVESGGGLVQAGGSLRLSCAASGSTFKINALGWYIQAPGKERELVALIRASGASTYYADSVKGRFTISRDNAKKTVYLRMNILKPEDTAVYYCAATTRGYKWVGRDYDYWGQGTQVTVSS	high polyreactivity
QVQLVESGAGLVQAGGSLRLSCASSGYIFDRYAMGWYRQAPGKERELVAAISGRGGSTYYADSVKGRFTISRDNAKYTVYLKMNSLKPEDTAVYYCARDVYVRYGQRARYDSWGQGTQVTVSS	high polyreactivity

----------
# ASSAY OVERVIEW: yeast display, Sf9 membrane polyspecificity reagent, FACS + sequencing; frameworks hold sequencing errors

ITEM SEQUENCE	polyreactivity (PSR sort gate)
QVQLVESGGGLVQAGGSLRLICAASGRIIRYYAMGWYRQAPGKERELVAITSSGGRTYYADSVKGRFSISRDNAKNTVYLQMNSLKPEDTAVYYCAVDSHCPGRGERFIRLDYWGQGTQVTVSS	low polyreactivity
QVQLVESGGGLVQAGGSLRLSCAASGSIFYFYTMGWYRQAPGKEREFVAAINGIGGSTYYADSVKGRFTISRDNAKNTVYLQMNSLKPEDTAVYYCAADAPWFKRNARKYNYWGQGTQVTVSS	low polyreactivity

----------
# ASSAY OVERVIEW: yeast display, Sf9 membrane polyspecificity reagent, FACS + sequencing; frameworks hold sequencing errors

ITEM SEQUENCE	polyreactivity (PSR sort gate)
QVQLVESGGGLVQAVGSLRLSCAASGRIFNYYAMGWYRQAPGKEREMVAGISGYGTSTYYADSVKGRFTISRDNAKNTVYLQMNSLKPEDTAVYYCAADVFRDDVWLDYWGHGTQVTVSS	low polyreactivity
QVQLVESGGGLVQAGGSLRLSCAASGRTFVYYAMGWYRQAPGKEREFVATITSSGGSTYYADSVKGRFTISRDNAKNTVYLQMNSLKPEDTAVYYCNADSVSSPPYYDYWGQGTQVTVSS	high polyreactivity
QVQLVESGGGLDQAGGSLRLSCADSGSLSDWNAMVSYRQAAGKEREWVAAINWSGDTTYYADSVKGRFTISRDNAKNTFYLQMNCLNPEDTAVYYCAAELVVDYDWYDYWGQGTQVTVSS	high polyreactivity
QVQLVESGGGLVQAGGSLRLSCAASGYTILTNAMGWYRQAPGKERELVADITSSGGSTYYADSVKGRFTISRDNAKNTVYLQMNSLKPEDTAVYYCAKRWYRNRYGYWGQGTQVTVSS	high polyreactivity
QVQLVESGGGLVQAGGSLRLSCAASGSTFPHNAMGWYRQAPGKERELVAAISVGGGSSHYADSVKGRFTISRDNAKNNVYLQMNSLKPEDTAVYYCAKDYAYQYSFVTYDYWGQGTQVTVSS	low polyreactivity

----------
# ASSAY OVERVIEW: yeast display, Sf9 membrane polyspecificity reagent, FACS + sequencing; frameworks hold sequencing errors

ITEM SEQUENCE	polyreactivity (PSR sort gate)
QVQLVESGGGLVQAGGRLRLSCAASGITFWSNALGWYRQAPGKERELVAAMTSGGNTNYADSVKGRFTISRDNAKNTVYLQMNSLKPEDTAVYYCATKQLLRRRQGYYWVGSKHDYWGQGTQVTVSS	high polyreactivity
QVQLVESGGGLVQAGGSLRLSCAASGSTSGKYAMGWYRQAPGKERELVAGITKGGGGTYYADSVKGRFTISRDNAKNTVYLQMNSLKPEDTAVYYCAAGTLYSLYFGRHGYWGQGTQVTVSS	low polyreactivity
QVQLVESGGGLVQAGGSLRLSCAASGRTFLHNAKGWYRQAHGKERELVAAIDSGGTTHYADSVKGRFTISRDNAKNTVYLQMKSLKPEDTAVYYCAARPTRGNWWYGYWGQGTQVTVSS	low polyreactivity
QVQLVESVGGLVQAGGSLRLSCAASGRTFKFYAMGWYRQAPGKERELVAAISSSGGRTYYADSVKGRFTISRDIAKNTVYLQMNSLKPVDTAVYYCARSSDYYFFGHYYWGQGTQVTVSS	high polyreactivity
QVQLVESGGGLVQAGGSLRLSCAASGSTFSVYAMGWYRQAPGKERELVADITRGGSTYADSVKGRFTISRDNAKNTVYLQMNSLKPEDTAVYYCAREEVTPYPLYWSTREYDYWGQGTQVTVSS	low polyreactivity

----------
# ASSAY OVERVIEW: yeast display, Sf9 membrane polyspecificity reagent, FACS + sequencing; frameworks hold sequencing errors

ITEM SEQUENCE	polyreactivity (PSR sort gate)
QVQLVESGGGLVQAGGSLRLSCAASGSIFTPYAMVWYRQAPGKERELVATISWRGGSTYADSVKGRFTISRDNAKNTVYLQMNSLKPEDTAVYYCNKEYTFSLYDYWGQGSQVTVSS	low polyreactivity
QVQLQESAGGLVQAGGSLRLRCSASGYISCDASKGWYRQAPGKERELAASITKGSSTNYADSVKGRFTIRDNAKNSVNLQMNSLKPEDTAVCYCAVTYPYWGDYTYWGQGTQVTVSS	low polyreactivity
QVQLVESGGGLVQAGGSLRLSCAASGRTFVNYAMGWYRQAPWKERELVAAITWSSGRTYYADSVKGRFTISRDNAKNTVYLQMNSLKPEDTAVYYCAAVGRYSGYDYWGQGTQVTVSS	high polyreactivity
QVQLVESGGGLVQAGGSLRLSCAASGRTIRWNAMGGSRPAPGKERELVAAITSRGGSTYYADSVKGRFTISRDNAKNTVYLQMNSLKPEDTAVYYCAAGGRYGDDYWGQGTQVTVSS	high polyreactivity
QVQLLESGGGLDQAGGSLRISCPASGSIFWSNAMGWYRQAPGKEREFVAALTWSGDNTYFADSVKGRFTISRENAKNTVDLQMNSLKPEDTAVYYCAAVFQNKAVGGVTSIYDCRGQGTQVTVSS	low polyreactivity

----------
# ASSAY OVERVIEW: yeast display, Sf9 membrane polyspecificity reagent, FACS + sequencing; frameworks hold sequencing errors
RECORDED ENDPOINT: polyreactivity (PSR sort gate)

ITEM SEQUENCE	DATA VALUE
QVQLVESGGGLVQAGGSLRLSCAASGIIFYYYAMGWYRQAPGKERELVAAISRSGGITYYPDSVKGRFTISRDNAKNTEYFQMNSLKAEDTAVYYGNALRLVYYHPEDDYWGQGPQVTVSS	high polyreactivity
QLQLVESGGGLVQAGGSLRLSCAPSGSIFYYSAMGWSRQAPGKESEFVAAITRNGGSTYYADSVKGRFTISRDNAKNTVYLQMNSLKPVATAVFYCNAVRVRVTSHRIRQLDYGYWGQGTQVTVSS	low polyreactivity
QVQLVESGGGLVQAGGSLSLNCAASGFTFLQYPMGWYRQAPGKERELVATISSGGSTYYADSVKGRFTISPDNAKNTVYLQMNSLKPEDTAVYYCADTGYSSCTYYTHEYWGQGTQVTVSS	low polyreactivity
QVQLVESAGGLVQAGGSLRLSCAASGITYDHYAMGWYRQAPGKERELVARITGTGDSTYYADSVKGRFTISRDNAKNTVYLQMNSLKPEDTAVYYCAAVSYRQYYGWGNYWGLGTQVTVSS	low polyreactivity
QVQLVESGGGLVQAGGSLRLSCAASGSTFAYYTMGWYRQAPGKERELVAAISASGGSTYYADSVKGRFTISRDFAKNTVYFQMNSLKPEDTAVYYCNAESYLTGWWVDYWGQGTQVTVSS	low polyreactivity
QVQLVESGGGLVQAGGSLRLSCAASGSTFYIYVMGWYRQAPGKERELVATITWGGVSTYYADSVKGRFTISRDNAKNTVYLQMNSLKTEDTAVYYCATRGKSHGQQFNYWGQGTQVTVSS	high polyreactivity
QVQLVESGGGLVQAGGSLRLSCAASGRTFWVYAMGRYRQAPGKEREFVAAISSNGDRTYYADSVKGRFTISRDNAKNTVYLQMNSLKPEDTAVYYCNSRKQYRYLADRMDYWGQGTQVTVSS	high polyreactivity
QVQLVESGGGLVQAGGSLRLSCAASGSTFSLYAMGWYRQAPGKERELVASITWGGGSTYADSVKGRFTISRDNAKNTVYLQMNSLKPEDTAVYYCARKYRYRVLYDFAYDHWGQGTQVTVSS	low polyreactivity
QVQLVESGGGLVQAGGSLRLSCAASGRIFKYNAKGWYRQAPGKERELVAAISGTGGSTYYADSVKGRFTISRDNAKNTVYLQMNSLKPEDTAVYYCNRRYYGHSTWKYDYWAQGTQVTVSS	high polyreactivity
QVQLVESGGGLVQAGGSLRLSCAASGSTFSGYMGWYRQAPGKERELVAAITSSGGSTYYADSVKGRFTISRDNAKNTVYLQMYSLKPEDTAVYYCAADGGYRGEDYWGQGTQVTVSS	high polyreactivity
QVQLVESGGGLVQAGGSLRLSCAASGSTFFTNAMGWYRPAPGKERELVAAITINDGSTFYADSVKGRFTISRDNAKNSDYLQMNSLKPEDTAVYYCNTDGVDLYDYWGQGTQVTVSS	low polyreactivity
QVQLVESGGGLVQAGGSLRLSCAASGRIFGTYAMGWYRQAPGKERELVAVITRGGGTKYADSVKGRFTISRDNAKNTVYLQMNSLKPEDTAVYYCAARGRYYGYNYWGQGTQVTVSS	high polyreactivity
QVQLVESGGGLVQAGGSLRLSCAASGSTFRWNAMGWYRQAPGKERELVAAISNGGSTNYADSVKGRFTISRDNAKNSVYFQMNSLKPEDTAVYYCATDGWYGQHYYDYDFDYYYWGQGTQVTVSS	low polyreactivity
QVQLVESGGGLVQAGGSLSLSCGASGRIFSLYAMGWYRQAPGKERELVAAMSWGAGSTYYADSVKGRFTISRDNAKNTVYLQMNSLKREATAVYYCATGRRYYYPYASYLKYGYWGQGTQVTVSS	high polyreactivity
QVQLVESGGGLVQAGGSLRLSCAASARIFIVNAMGWYRQAPGKDREFVAANTSRGGITYYADSVKGRFTISRDNAKNTVYLQMNSLKPEDTAVYYCAAGYITCGSGNWVVTPYDYWGQGTQVTVSS	high polyreactivity
QVQLVESGGGLDQAGGSLRLSCAASGSIFVLYAMGWYRQAPGKERELVAAITRSGGDTYYADSVKGRFTISRDNAKNTVYLQMNSLKPEDTAVYYCAAERSWYPWVATGYYWGQGTQVTVSS	low polyreactivity
QVQLVESGGGIVQAGVSLRLSCAASGRTFWTNAMGWYRQAPGKERELVAVISTTTGNTYYADSVKGRFTISRDNAKNTVYLQMNSLKPEDTAVYYCNTRTGAFFLSKPYYYWGQGTQVTVSS	low polyreactivity
QVQLVESGGGLVQAGGSLRLSCAASGFIFGWYGMGWDRQARGKERELVAAITWSGVRTYYADSVKGRFTISRDNAKNTVYLQMNSLKPEDTAVYYCARAGGYVGRGYKDQDGRGDYWGQGTQVTVSS	high polyreactivity
QVQLVESGGGLVQAGGSLRLSCAASGFIFYRYPMGWYRQAPGKERELVAAISYSGGSTYYADSVKGRFTISRDNAKNTVYLQMNSLKQEDTAVYYCARRQVYKFRRYDYWGQGTQVTVSS	high polyreactivity
QVQLVESGGGLVQAGGSLRLSCAASGSTFSDNVMGWYRQAPGKERELVAGITRSGGRTYYADSVKGRFTISRDNAKNTVDLQMNSLKPEDTEVYYCAARRSGSKSGLFDYWGQGTQVTVSS	low polyreactivity
QVQLVESGGGLVQAGGSLRLSCAASGLIFPVYDMGWYRQAPGKERELVAAITRSGDSTYYADSVKGRFTISRDNAKNTVYLQMNSLKPEDTAVYYCAAQPGTASYAGDGDSWGQGTQVTVSS	low polyreactivity
